The origin of these recorded values is patent US10316037B1.

pIC50 reference
- Tested on: cancer cell lines
- protocol.details: Anti-cancer activity, CellTiter-Glo luminescence after 72 hours compound treatment
- Format: cell-based
- condition: cell line not stated, 4-parameter fit inflection point (IC50)
pIC50: −log10 of the molar value.
recorded.metric: pIC50

INSERT INTO assay_data (molecule, recorded_metric, assay_result) VALUES
  ('CSCCCNC(=O)c1csc(-c2csc(Cn3c(CC[C@H](C)NC(=O)OC(C)(C)C)c4c(cc3=O)C3(CC3)NC4=O)n2)n1', 'pIC50', 7.96),
  ('C[C@H](N)CCc1c2c(cc(=O)n1Cc1nc(-c3nc(C(=O)NCCN(C)C)cs3)cs1)C1(CC1)NC2=O [compound 17a]', 'pIC50', 7.46);
